# study-target: Estrogen receptor (Homo sapiens)
# protocol: Displacement of fluorescein-labeled estradiol from human recombinant ERalpha at 1 uM by fluorescence polarization assay
Use 40% as the dividing line for Activity, with the line itself on the 1.0 side and lower values as 0.0.

Q) Quick check, Activity >= 40%? "CCC/C=C(\CCC)[C@@H](NC(=O)c1ccc(C(F)(F)F)cc1)c1ccc(C(F)(F)F)cc1"
A) 0.0

Q) Quick check, Activity >= 40%? "CCC/C=C(\CCC)[C@@H](NC(=O)c1ccc(C(=O)OC)cc1)c1ccc(C(=O)OC)cc1"
A) 0.0

Q) Quick check, Activity >= 40%? "C=C(CCCC)[C@@H](NC(=O)c1ccc(C(F)(F)F)cc1)c1ccccc1"
A) 0.0

Q) Quick check, Activity >= 40%? "CCC/C=C(\CCC)[C@@H](NS(=O)(=O)c1ccccc1)c1ccc(C(F)(F)F)cc1"
A) 1.0

Q) Quick check, Activity >= 40%? "CCCC[C@@H]1C[C@H]1[C@@H](NC(=O)Cc1ccccc1)c1ccc(-c2ccccc2)cc1"
A) 0.0

Q) Quick check, Activity >= 40%? "C=C(CCCC)[C@@H](NC(=O)C(C)(C)C)c1ccccc1"
A) 0.0

Q) Quick check, Activity >= 40%? "CCC/C=C(\CCC)[C@@H](NC(=O)c1ccccc1)c1ccccc1"
A) 1.0

Q) Quick check, Activity >= 40%? "CCC/C=C(\CCC)[C@@H](NC(=O)c1ccc(-c2ccccc2)cc1)c1ccc(C(=O)OC)cc1"
A) 0.0

Q) Quick check, Activity >= 40%? "C=C(CCCC)[C@@H](NC(=O)c1ccccc1)c1ccccc1"
A) 1.0

Q) Quick check, Activity >= 40%? "CCCC[C@@H]1C[C@H]1[C@@H](NC(=O)c1ccco1)c1ccccc1"
A) 1.0

Q) Quick check, Activity >= 40%? "CCCC[C@@H]1C[C@H]1[C@@H](NC(=O)c1ccco1)c1ccc(-c2ccccc2)cc1"
A) 1.0

Q) Quick check, Activity >= 40%? "CCCCCC/C=C(\C)[C@@H](NC(=O)c1cccnc1)c1ccc(-c2ccccc2)cc1"
A) 1.0

Q) Quick check, Activity >= 40%? "CCC/C=C(\CCC)[C@@H](NC(=O)c1cccs1)c1ccc(C(F)(F)F)cc1"
A) 0.0

Q) Quick check, Activity >= 40%? "CCCC[C@@H]1C[C@H]1[C@@H](NC(=O)c1ccc(C(F)(F)F)cc1)c1ccc(C(=O)OC)cc1"
A) 1.0

Q) Quick check, Activity >= 40%? "CCC/C=C(\CCC)[C@@H](NS(=O)(=O)c1ccc(C(Cl)(Cl)Cl)cc1)c1ccccc1"
A) 1.0

Q) Quick check, Activity >= 40%? "CCC/C=C(\CCC)[C@@H](NC(=O)c1ccccc1)c1ccc(C(=O)OC)cc1"
A) 1.0

Q) Quick check, Activity >= 40%? "CCC[C@@H]1C[C@@]1(CCC)[C@@H](NC(=O)Cc1ccccc1)c1ccc(-c2ccccc2)cc1"
A) 0.0

Q) Quick check, Activity >= 40%? "CCC[C@@H]1C[C@@]1(CCC)[C@@H](NS(=O)(=O)c1cccc2cccnc12)c1ccc(-c2ccccc2)cc1"
A) 1.0

* * *

So I've got a bunch of compounds here, and I need their Activity values.
# study-target: Estrogen receptor beta (Homo sapiens, UniProt Q92731)
# Sequence (Q92731 whole entry): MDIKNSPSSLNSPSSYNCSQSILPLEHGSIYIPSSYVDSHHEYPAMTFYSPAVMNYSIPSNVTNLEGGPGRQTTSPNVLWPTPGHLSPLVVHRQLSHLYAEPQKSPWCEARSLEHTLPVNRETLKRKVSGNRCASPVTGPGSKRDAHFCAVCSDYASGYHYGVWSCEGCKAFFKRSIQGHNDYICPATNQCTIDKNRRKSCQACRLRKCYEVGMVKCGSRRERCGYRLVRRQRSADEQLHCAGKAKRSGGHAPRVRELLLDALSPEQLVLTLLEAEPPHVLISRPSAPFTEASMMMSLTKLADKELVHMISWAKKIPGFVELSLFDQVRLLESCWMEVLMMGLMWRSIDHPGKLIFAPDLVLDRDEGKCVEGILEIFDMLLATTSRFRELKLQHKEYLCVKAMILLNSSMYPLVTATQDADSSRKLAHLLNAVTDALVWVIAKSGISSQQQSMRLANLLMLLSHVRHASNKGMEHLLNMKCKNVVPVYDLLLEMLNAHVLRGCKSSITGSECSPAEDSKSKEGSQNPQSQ
# protocol: Displacement of fluorescein-labeled estradiol from human recombinant ERbeta at 0.2 uM by fluorescence polarization assay
// units = %; emit number, no label

Q) Specify Activity for "CCC/C=C(\CCC)[C@@H](NS(C)(=O)=O)c1ccccc1" and stop.
A) -3

Q) Specify Activity for "C=C(CCCC)[C@@H](NC(=O)c1ccccc1)c1ccccc1" and stop.
A) 2

Q) Specify Activity for "CCC/C=C(\CCC)[C@@H](NC(=O)c1ccc(C(=O)OC)cc1)c1ccc(C(=O)OC)cc1" and stop.
A) -13

Q) Specify Activity for "C=C(CCCC)[C@@H](NC(=O)c1cccs1)c1ccccc1" and stop.
A) -1

Q) Specify Activity for "C=C(CCCC)[C@@H](NC(=O)c1ccco1)c1ccccc1" and stop.
A) -3

Q) Specify Activity for "CCCC[C@@H]1C[C@H]1[C@@H](NC(=O)c1ccco1)c1ccc(-c2ccccc2)cc1" and stop.
A) -2

Q) Specify Activity for "C=C(CCC)[C@@H](NC(=O)c1ccccc1Cl)c1ccccc1" and stop.
A) 11

Q) Specify Activity for "CCCC[C@@H]1C[C@H]1[C@@H](NC(=O)Cc1ccccc1)c1ccc(-c2ccccc2)cc1" and stop.
A) 2

Q) Specify Activity for "CCC/C=C(\CCC)[C@@H](NS(=O)(=O)c1ccc(-c2ccccc2)cc1)c1ccc(C(=O)OC)cc1" and stop.
A) 6

Q) Specify Activity for "CCC/C=C(\CCC)[C@@H](NS(=O)(=O)c1cccc2cccnc12)c1ccc(-c2ccccc2)cc1" and stop.
A) 14
